Test system: male mice
Test: extension of sleeping time of depressant drugs by synergists
Type: in vivo, male mice (Swiss albino white)
Settings: Noludar 110 mg/kg; synergist 110 mg/kg one hour prior
readout.type: Mean Sleeping Time, Noludar (min)
Answer format: numeric, min implied, no suffix.

Known results for compounds:
INSERT INTO assay_data (compound, measured) VALUES
  ('C#CCON=Cc1ccc(Cl)cc1Cl', 48),
  ('C#CCn1ncc2cc([N+](=O)[O-])ccc21', 32);

Input line: Report measured Mean Sleeping Time, Noludar on male mice; entry: C#CCOCc1c(Cl)ccc(Cl)c1Cl
Output line: 45

Input line: State measured Mean Sleeping Time, Noludar of the compound C#CCON=Cc1cccc2ccccc12 with male mice.
Output line: 62

Input line: Report its Mean Sleeping Time, Noludar with male mice as the test system: C#CCOCc1ccc(Cl)c(Cl)c1
Output line: 50
